meta.source: PubChem BioAssay AID2521

EXPERIMENTAL SYSTEM: Apelin receptor (Homo sapiens)
PROTOCOL: antagonists of human apelin receptor APJ, primary screen, CHO-K1 cells, beta-arrestin complementation, luminescence (AID 2521);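 note: cells challenged with 10 nM apelin-13 agonist together with compound; plate controls were apelin-13 plus DMSO wells for no effect and DMSO wells lacking apelin-13 for full effect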
RECORDED CONDITIONS: at 20 µM, stronger effect = higher value
The whole screen tested about 330,000 compounds, of which about 1,100 (0.33%) were called active. What follows is part of a selection rich in actives, with near analogues and random picks from the rest.
ENDPOINT LABEL: inhibition (%)

MOLECULE	EXPERIMENTAL SYSTEM	VALUE
CC(Oc1ccccc1F)C(=O)NN (stereo unspecified)	Apelin receptor (Homo sapiens)	-7.83
COc1cccc(C(=O)N/N=C(\C)c2cccc(NC(=O)c3ccc(F)cc3)c2)c1OC	Apelin receptor (Homo sapiens)	-21.2
O=C(COC(=O)CCc1nc2ccccc2c(=O)[nH]1)Nc1ccc(N2CCOCC2)cc1	Apelin receptor (Homo sapiens)	5.92
CC(=O)C1=C(O)C(=O)N(c2cccnc2)C1c1ccc([N+](=O)[O-])cc1 (stereo unspecified)	Apelin receptor (Homo sapiens)	5.89
CC1CCN(C(=O)c2cc3nc(C4CC4)cc(C(F)(F)F)n3n2)CC1	Apelin receptor (Homo sapiens)	1.74
CC(C)(C)c1ccc(NC(=O)COC(=O)CCc2nc3ccccc3c(=O)[nH]2)cc1	Apelin receptor (Homo sapiens)	9.52
Nc1nc(SCC(=O)NNc2c(Cl)cc(Cl)cc2Cl)n[nH]1	Apelin receptor (Homo sapiens)	-14.8
CC(C)NC(=O)C(c1ccc(F)cc1)N(C(=O)CCC(=O)Nc1ccccn1)c1ccccc1F (stereo unspecified)	Apelin receptor (Homo sapiens)	21.5
O=C(Cc1c(Cl)cccc1Cl)NC1CC1	Apelin receptor (Homo sapiens)	14.9
CCNC(=S)N(CCN(CC)CC)Cc1cc2cc3c(cc2[nH]c1=O)OCO3	Apelin receptor (Homo sapiens)	12.3
O=C(CSc1nnnn1C1CCCC1)N1CCCCC1	Apelin receptor (Homo sapiens)	-7.07
